molecular target: gastrin receptors (Rattus norvegicus, UniProt P30553); construct: from tissue; host or cells: isolated perfused whole stomach of immature rats (33-50 g, ca. 21 days old); test: gastrin antagonist activity in an immature rat stomach assay (pentagastrin-stimulated acid secretion); settings: isolated immature rat stomach, cumulative pentagastrin dose-response curves, read-out: Gastrin pKB (converted)
Sequence (P30553 whole entry, the tested form may be a part): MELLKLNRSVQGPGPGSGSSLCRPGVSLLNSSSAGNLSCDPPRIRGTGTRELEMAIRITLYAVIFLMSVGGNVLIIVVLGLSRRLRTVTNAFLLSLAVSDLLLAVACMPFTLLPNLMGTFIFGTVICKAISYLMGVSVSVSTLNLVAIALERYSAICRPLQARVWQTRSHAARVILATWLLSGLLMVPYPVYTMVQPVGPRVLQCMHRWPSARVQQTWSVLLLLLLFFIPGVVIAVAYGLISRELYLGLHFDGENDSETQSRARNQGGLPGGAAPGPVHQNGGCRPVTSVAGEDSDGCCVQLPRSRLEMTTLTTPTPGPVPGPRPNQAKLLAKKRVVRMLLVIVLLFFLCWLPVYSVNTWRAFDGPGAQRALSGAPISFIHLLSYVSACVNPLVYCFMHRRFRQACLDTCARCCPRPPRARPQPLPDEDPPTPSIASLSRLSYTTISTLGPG
Readout label: Kb (nM)

O=C(NCC12CC3CC(CC(C3)C1)C2)C1C2C=CC(c3ccccc32)C1C(=O)N1C[C@H](O)C[C@@H]1C(=O)O (stereo partly shown); 2000
O=C(NCC12CC3CC(CC(C3)C1)C2)C1C2C=CC(c3ccccc32)C1C(=O)N1CCC[C@@H]1C(=O)O (stereo partly shown) [Example 10]; 1580

(1) COC(=O)[C@@H]1CCCN1C(=O)C1C2C=CC(c3ccccc32)C1C(=O)NCC12CC3CC(CC(C3)C1)C2 (stereo partly shown) [Example 30]
(2) COC(=O)[C@H](C)NC(=O)C1C2CCC(CC2)C1C(=O)NCC12CC3CC(CC(C3)C1)C2 (mixture of isomers)
Lab note: record which item had the higher Kb, 1 or 2 . # reply format: chosen label
2
(2: 1000 nM, 1: 398 nM)
